Test Protocol: Fibril dimensions measured from TEM images
Type: physicochemical
Assay Setup: physiological conditions, TEM
Where a SMILES comes first, the peptide text is derived from it. [ ]: non-standard residue; d: D form. Orn = NCCC[C@H](N)C(=O)O
I'd appreciate it if you could supply ww, width of the fibril at its widest point values for the items below.

ww, width of the fibril at its widest point reading for CC(=O)N[C@@H](CO)C(=O)N[C@@H](CO)C(=O)N[C@@H](CCCNC(=N)N)C(=O)N[C@@H](Cc1ccccc1)C(=O)N[C@@H](CCCN)C(=O)N[C@@H](Cc1c[nH]c2ccccc12)C(=O)N[C@@H](CCCN)C(=O)N[C@@H](Cc1ccccc1)C(=O)N[C@@H](CCC(=O)O)C(=O)N[C@@H](CO)C(=O)N[C@@H](CO)C(N)=O [Peptide P11-12, CH3CO-S-S-R-F-O-W-O-F-E-S-S-NH2] (Ac-SSRF[Orn]W[Orn]FESS-NH2) : 11-16 nm

Lab book: ww, width of the fibril at its widest point of CC(=O)N[C@@H](CCC(N)=O)C(=O)N[C@@H](CCC(N)=O)C(=O)N[C@@H](CCCNC(=N)N)C(=O)N[C@@H](CCC(N)=O)C(=O)N[C@@H](CCCN)C(=O)N[C@@H](CCC(N)=O)C(=O)N[C@@H](CCCN)C(=O)N[C@@H](CCC(N)=O)C(=O)N[C@@H](CCC(=O)O)C(=O)N[C@@H](CCC(N)=O)C(=O)N[C@@H](CCC(N)=O)C(N)=O [Peptide P11-19, CH3CO-Q-Q-R-Q-O-Q-O-Q-E-Q-Q-NH2] (Ac-QQRQ[Orn]Q[Orn]QEQQ-NH2) noted as 15-22 nm
